# Read-out: Macrophage colony-stimulating factor (MCSF), CSF1 (gene 1435)
# Test Details: BSK_CASM3C_MCSF: BioMAP Diversity Plus: CASM3C Assay for Macrophage colony-stimulating factor (MCSF) Biomarker Activity (AID 2283044);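 note: M-CSF protein amount quantified by ELISA after 24 h exposure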
# Condition Description: primary human coronary artery smooth muscle cells; actives raise or lower the signal
Activity calls are given as the source filed them. Rule for the calls: active = hit-call score of the fitted dose curve at least 0.9, where 1 is the maximum; inactive = score below 0.9.
Write down the outcome that applies. Available outcomes: active, inactive

{"columns": ["Compound", "Label"],
 "data": [
  ["CCCCC(CC)COC(=O)CCCCCCCCC(=O)OCC(CC)CCCC (centres undefined)", "inactive"],
  ["On1ccccc1=S", "active"],
  ["O=C1OC(=O)C2C3C=CC(C3)C12 (centres undefined)", "inactive"],
  ["CC(C)=CCCC(C)CCO (centres undefined)", "inactive"],
  ["COc1ccc(/C=C/S(=O)(=O)NC(=O)c2ccc(C)cc2Cl)cc1", "inactive"],
  ["Cc1c(-c2cccnc2)c2ccccc2n1CCCCC(=O)O", "inactive"],
  ["COc1ccc2sc(C(=O)Nc3nnn[nH]3)c(OC(C)C)c2c1", "active"],
  ["CC(C)CCCCCCOC(=O)c1ccc(C(=O)OCCCCCCC(C)C)c(C(=O)OCCCCCCC(C)C)c1", "inactive"]
]}

IN: Give the logged outcome of this assay for the following compound: `CC(C)CCO`
OUT: inactive

IN: Another compound to look at: CCOC(=O)COc1ccc2c(c1)CC(NCC(O)c1cccc(Cl)c1)CC2 (centres undefined)
OUT: inactive

IN: Now the same for `CCC(C)(C)C(=O)O[C@H]1C[C@@H](C)C=C2C=C[C@H](C)[C@H](CC[C@@H]3C[C@@H](O)CC(=O)O3)[C@H]21`
OUT: active

IN: Can you handle `Cn1c(=O)cc(Oc2ccc(F)cc2F)c2cnc(NCC(C)(C)O)nc21` next?
OUT: inactive

IN: What about `CCn1nc(Cc2ccccc2)cc1C1CCN(C[C@H]2C[C@H](N(C)[C@@H](C(=O)O)C(C)C)C[C@@H]2c2cccc(F)c2)CC1` ?
OUT: inactive

IN: `O=C(NS(=O)(=O)/C=C/c1ccccc1)c1ccc(F)cc1Cl` , same question.
OUT: inactive

IN: What about this compound? O=c1[nH]c2ccc(S(=O)CCN3CCC(Cc4ccc(F)cc4)CC3)cc2o1 (centres undefined)
OUT: inactive

IN: Another compound to look at: O=c1n(CC2CO2)c(=O)n(CC2CO2)c(=O)n1CC1CO1 (centres undefined)
OUT: inactive

IN: // repeat for `COC(=O)CC(=O)OC` and report
OUT: inactive

IN: And `NC(=O)NO` ?
OUT: inactive

IN: Now consider `Cc1ccc(S(=O)(=O)O)cc1C` .
OUT: inactive

IN: Would you kindly repeat that for `CC(C)(O)c1coc(S(=O)(=O)NC(=O)Nc2c3c(cc4c2CCC4)CCC3)c1` ?
OUT: inactive

IN: Ok, now `CC(C)CCCCCCCOC(=O)CCCCC(=O)OCCCCCCCC(C)C`
OUT: inactive

IN: Please do the same for `CCCCCCCCCCCCCCCO` as well.
OUT: inactive

IN: Next: `Oc1ccc2c(c1)-c1ccccc1C2`
OUT: inactive

IN: Here is the next compound: `CCCN(C1CCN(C(=O)C2CCNCC2)CC1)[C@@H]1CCc2ccc(OC)cc2C1`
OUT: inactive
